- System: IL-6
- methodNotes: Inhibition of IL-6 in LPS-stimulated THP-1 human monocyte cells (HTRF)
- Format: cell-based
- conditionSummary: IL-6 inhibition, LPS-stimulated THP-1 cells, HTRF
pEC50: −log10 of the molar value.
metric: pEC50

| compound | targetOrTestSystem | valueMeasured |
| --- | --- | --- |
| c1cnc2cc(-c3n[nH]c4ccc(-c5cncc(CN6CCCCC6)c5)cc34)[nH]c2c1 [Compound 519] | IL-6 | 7.01 |

a. CCNCc1cncc(-c2ccc3[nH]nc(-c4cc5ncccc5[nH]4)c3c2)c1 [Compound 510]
b. c1cncc(-c2ccc3[nH]nc(-c4cc5ccccc5[nH]4)c3c2)c1 [Compound 256]
c. CCNCc1cncc(-c2ccc3[nH]nc(-c4cc5ccccc5[nH]4)c3c2)c1 [Compound 258]
Prompt line: // ranking: key=pEC50, reverse=True I would appreciate it if you listed the labels in the requested order.
Response line: b, a, c
(b: 8.00, a: 7.01, c: 6.79)

----------
- Tested on: IL-6
- methodNotes: Inhibition of IL-6 in LPS-stimulated THP-1 human monocyte cells (HTRF)
- Type: cell-based
- conditionSummary: IL-6 inhibition, LPS-stimulated THP-1 cells, HTRF
metric: EC50 (nM)

// worked examples, EC50 included
| smi | metric | quantityUnit | valueMeasured |
| --- | --- | --- | --- |
| O=C(Nc1cncc(-c2ccc3[nH]nc(-c4cc5ncccc5[nH]4)c3c2)c1)c1ccccc1 | EC50 | nM | 270 |
| CN(C)CCNc1cc(F)cc(-c2cccc3[nH]c(-c4n[nH]c5ccc(-c6cncc(N7CC(N)C7)n6)cc45)cc23)c1 | EC50 | nM | 77 |
| Nc1cncc(-c2ccc3[nH]nc(-c4cc5c(-c6ccsc6)cccc5[nH]4)c3c2)c1 | EC50 | nM | 180 |
| Fc1ccccc1-c1cccc2[nH]c(-c3n[nH]c4ccc(-c5cncc(CN6CCC(F)(F)C6)c5)cc34)cc12 | EC50 | nM | 4300 |

A. CC(C)CC(=O)Nc1cncc(-c2ccc3[nH]nc(-c4cc5c(-c6cc(F)cc(NCCN(C)C)c6)cccc5[nH]4)c3c2)c1
B. Fc1ccccc1-c1cccc2[nH]c(-c3n[nH]c4ccc(-c5cncc(CN6CCCCC6)c5)cc34)cc12
Prompt line: I'd appreciate it if you could identify which of A and B has the greater EC50. Select an item and report its label.
Response line: B
(B: 3110 nM, A: 1290 nM)

----------
- Tested on: IL-6
- methodNotes: Inhibition of IL-6 in LPS-stimulated THP-1 human monocyte cells (HTRF)
- Type: cell-based
- conditionSummary: IL-6 inhibition, LPS-stimulated THP-1 cells, HTRF
pEC50: −log10 of the molar value.
metric: pEC50

Before answering, review these 8 worked examples.
| compound | valueMeasured |
| --- | --- |
| CN(C)CCNc1cc(F)cc(-c2cccc3[nH]c(-c4n[nH]c5ccc(-c6cncc(NC(=O)c7ccccc7)c6)cc45)cc23)c1 [Compound 459] | 6.96 |
| c1ccc(-c2ccc3[nH]nc(-c4cc5c(-c6ccncc6)cccc5[nH]4)c3c2)nc1 [Compound 140] | 6.87 |
| CN(C)CCOc1cncc(-c2ccc3[nH]nc(-c4cc5c(-c6ccoc6)cccc5[nH]4)c3c2)c1 [Compound 719] | 5.77 |
| CCCC(=O)Nc1cncc(-c2ccc3[nH]nc(-c4cc5c(-c6cc(F)cc(NCCN(C)C)c6)cccc5[nH]4)c3c2)c1 [Compound 465] | 6.06 |
| FC1(F)CCN(Cc2cncc(-c3ccc4[nH]nc(-c5cc6c(-c7cccs7)cccc6[nH]5)c4c3)c2)C1 [Compound 362] | 6.43 |
| CS(=O)(=O)NCc1cc(F)cc(-c2cccc3[nH]c(-c4n[nH]c5ccc(-c6cncnc6)cc45)cc23)c1 [Compound 503] | 6.04 |
| COc1cncc(-c2ccc3[nH]nc(-c4cc5c(-c6ccoc6)cccc5[nH]4)c3c2)c1 [Compound 720] | 6.48 |
| CC(C)C(=O)Nc1cncc(-c2ccc3[nH]nc(-c4cc5c(-c6ccccc6F)cccc5[nH]4)c3c2)c1 [Compound 65] | 6.98 |

P. Cn1cc(-c2ccc3[nH]nc(-c4cc5c(-c6cccnc6)cccc5[nH]4)c3c2)cn1 [Compound 584]
Q. Fc1ccccc1-c1cccc2[nH]c(-c3n[nH]c4ccc(-c5cncc(OC6CCNCC6)c5)cc34)cc12 [Compound 572]
Prompt line: Kindly identify the item with the lower pEC50 figure among these two: P and Q Label of pick, please.
Response line: Q

1. CCCCC(=O)Nc1cncc(-c2ccc3[nH]nc(-c4cc5c(N6CCN(C)CC6)cccc5[nH]4)c3c2)c1 [Compound 243]
2. CC(C)CC(=O)Nc1cncc(-c2ccc3[nH]nc(-c4cc5c(-c6ccsc6)cccc5[nH]4)c3c2)c1 [Compound 282]
Prompt line: Select the item whose pEC50 value is smaller, choosing between 1 and 2 . Select an item and report its label.
Response line: 2
